Test: chemical genetic growth profiling, strain panel (AID 1159580);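 note: tested at 20 µM; growth read once vehicle control cultures reached saturation at 30 °C; 1 = growth at the plate median or of vehicle wells; lower values mean less growth of the strain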
Conditions: S. cerevisiae deletion strains, growth OD, locus YPR111W, strain DBF20, hits give low values
Hit rate of the full screen: of about 5,500 compounds, about 2,000 (36%) were called active. Inconclusive results (about 18%) are left out. This is one part of the list.
ASSAY_ENDPOINT: normalized growth

{"columns": ["SMILES_TEXT", "ASSAY_VALUE"],
 "data": [
  ["Cc1c(C)c(C)c(C(=O)c2ccc(N=Cc3cc(Cl)cc(Cl)c3O)cc2)c(C)c1C", 0.941],
  ["Cc1onc(-c2c(F)cccc2Cl)c1/C(N)=N\\OC(=O)c1ccc(C(C)(C)C)cc1", 0.986],
  ["Cc1nn(-c2cccc(Cl)c2)c2oc(=O)cc(C(F)(F)F)c12", 0.96],
  ["Cc1onc(-c2c(Cl)cccc2Cl)c1C(=O)O/N=C(/N)Cc1ccc(C(C)(C)C)cc1", 0.988],
  ["CC(=O)c1ccc(Cl)c(N=Cc2cc(Br)cc(Br)c2O)c1", 0.106],
  ["COC(=O)c1sccc1NS(=O)(=O)c1cc(Cl)cc(Cl)c1", 0.935],
  ["O=C(Nc1ccc(F)cc1F)c1cc(Cl)c(-n2cccc2)c(Cl)c1", 0.962],
  ["O=S(=O)(Oc1ccc(-c2csnn2)cc1)c1ccccc1Cl", 0.964],
  ["COc1c(Br)csc1C(=O)O/N=C(/N)c1cc(C(F)(F)F)cc(C(F)(F)F)c1", 0.964]
]}
